- assayedSystem: TLR7 (Homo sapiens, UniProt Q9NYK1)
- Sequence (Q9NYK1 27-1049): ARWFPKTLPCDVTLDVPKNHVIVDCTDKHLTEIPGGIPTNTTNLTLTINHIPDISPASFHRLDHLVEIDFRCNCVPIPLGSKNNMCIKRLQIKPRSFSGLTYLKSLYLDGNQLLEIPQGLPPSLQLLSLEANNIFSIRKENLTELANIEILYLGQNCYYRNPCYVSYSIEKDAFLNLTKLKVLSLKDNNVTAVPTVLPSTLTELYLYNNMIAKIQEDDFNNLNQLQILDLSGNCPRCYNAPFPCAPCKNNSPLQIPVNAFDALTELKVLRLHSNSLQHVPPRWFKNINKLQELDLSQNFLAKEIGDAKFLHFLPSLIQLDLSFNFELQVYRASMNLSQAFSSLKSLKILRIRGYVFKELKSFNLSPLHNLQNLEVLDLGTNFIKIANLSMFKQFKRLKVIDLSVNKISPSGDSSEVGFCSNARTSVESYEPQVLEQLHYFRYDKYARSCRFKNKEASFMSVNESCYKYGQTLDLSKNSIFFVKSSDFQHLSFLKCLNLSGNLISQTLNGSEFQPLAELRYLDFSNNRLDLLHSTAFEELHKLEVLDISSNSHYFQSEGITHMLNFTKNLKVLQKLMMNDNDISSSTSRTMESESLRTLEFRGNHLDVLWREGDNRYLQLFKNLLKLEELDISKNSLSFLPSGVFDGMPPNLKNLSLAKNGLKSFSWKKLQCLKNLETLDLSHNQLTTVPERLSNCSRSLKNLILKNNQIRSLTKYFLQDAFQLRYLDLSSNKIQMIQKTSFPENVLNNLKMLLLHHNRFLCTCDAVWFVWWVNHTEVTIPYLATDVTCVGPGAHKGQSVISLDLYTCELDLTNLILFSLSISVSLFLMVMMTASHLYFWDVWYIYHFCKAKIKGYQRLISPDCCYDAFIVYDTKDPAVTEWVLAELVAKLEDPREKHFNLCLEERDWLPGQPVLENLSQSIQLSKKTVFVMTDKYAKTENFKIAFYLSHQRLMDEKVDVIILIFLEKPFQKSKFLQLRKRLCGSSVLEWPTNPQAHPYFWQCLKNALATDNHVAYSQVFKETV
- assayProtocol: TLR7 cell based assay (HEK-BLUE-hTLR7, SEAP reporter linked to NF-κB activation)
- runParameters: HEK-BLUE-hTLR7 cells, 24 hours treatment, SEAP/QUANTI-Blue readout
quantityKind: EC50

# smiles, quantityKind, result
data = [
    ("CCCN(CCC)C(=O)C1=Cc2c(C)cc(-c3ccc4c(=O)n(CCS(C)(=O)=O)ncc4c3)cc2N=C(N)C1", "EC50", "10 to 50 µM"),
    ("CCCN(CCC)C(=O)C1=Cc2ccc(-c3ccc4c(=O)n(CCOP(=O)(OC)OC)ccc4c3)cc2N=C(N)C1", "EC50", "10 to 50 µM"),
    ("CCCN(CCC)C(=O)C1=Cc2ccc(-c3ccc4c(=O)n(CCP(=O)(OCC)OCC)ccc4c3)cc2N=C(N)C1", "EC50", "> 50 µM"),
    ("CCCN(CCC)C(=O)C1=Cc2ccc(-c3ccc4c(=O)n(Cc5nccn5C)ccc4c3)cc2N=C(N)C1", "EC50", "> 50 µM"),
    ("CCCN(CCC)C(=O)C1=Cc2ccc(-c3ccc4c(=O)n(CCNS(C)(=O)=O)ccc4c3)cc2N=C(N)C1", "EC50", "> 50 µM"),
    ("CCCN(CCC)C(=O)C1=Cc2ccc(-c3ccc4c(=O)n(CC(N)=O)c(C)cc4c3)cc2N=C(N)C1", "EC50", "> 50 µM"),
    ("CCCN(CCC)C(=O)C1=Cc2ccc(-c3ccc4c(=O)n(CCn5cccn5)ccc4c3)cc2N=C(N)C1", "EC50", "1 to 10 µM"),
    ("CCCN(CCC)C(=O)C1=Cc2ccc(-c3ccc4c(=O)n(CCO)ncc4c3)cc2N=C(N)C1", "EC50", "> 50 µM"),
    ("CCCN(CCC)C(=O)C1=Cc2ccc(-c3ccc4c(=O)n(Cc5ncco5)ccc4c3)cc2N=C(N)C1", "EC50", "10 to 50 µM"),
    ("CCCN(CCC)C(=O)C1=Cc2ccc(-c3ccc4c(=O)n(Cc5ncco5)ncc4c3)cc2N=C(N)C1", "EC50", "10 to 50 µM"),
    ("CCCN(CCC)C(=O)C1=Cc2ccc(-c3ccc4c(=O)n(CC(C)(C)O)ccc4c3)cc2N=C(N)C1", "EC50", "> 50 µM"),
    ("CCCN(CCC)C(=O)C1=Cc2ccc(-c3ccc4c(c3)CCN(CC(C)(C)O)C4=O)cc2N=C(N)C1", "EC50", "> 50 µM"),
    ("CCCN(CCC)C(=O)C1=Cc2ccc(-c3ccc4c(=O)n(CCN)ccc4c3)cc2N=C(N)C1", "EC50", "> 50 µM"),
    ("CCCN(CCC)C(=O)C1=Cc2ccc(-c3ccc4c(=O)n(Cc5nnnn5C)ccc4c3)cc2N=C(N)C1", "EC50", "> 50 µM"),
]
